Provenance of the data: PubChem BioAssay (NCI)

Test system: UO-31 renal
assayOverview: NCI tumour cell line growth inhibition, 48 h
quantityKind: TGI

Summary for this compound, CCOC(=O)Cc1c[nH]c(=S)[nH]c1=O : TGI is > 100 µM

Record C[C@H]1[C@H](C)N(Cc2ccccc2)P(=O)(C(O)/C=C/c2ccccc2)N1Cc1ccccc1 (stereo partly specified) . Reported TGI: 10.7 µM

The compound COc1cc2c(cc1OC)-c1[nH]c3ccc(C#N)cc3c1CC(=O)N2 showed TGI equal to > 22.6 µM

Summary for this compound, NS(=O)(=O)c1cc2c(cc1Cl)NC(C(=O)c1cc(=O)c3ccc(O)cc3o1)=NS2(=O)=O : TGI is > 100 µM

Per the records, this compound ( Nc1nc(/C=C\c2ccc([N+](=O)[O-])o2)nc(N2CCN(c3ccccc3)CC2)n1 ) has TGI equal to 39.8 µM

The compound listed as CC1CC2OC(=O)C3CC(O)CC(=C23)[C@@]12C[C@@H](c1ccoc1)OC2=O (stereo partly specified) shows TGI equal to > 100 µM

According to the records, this compound N#CC(C#N)=CN1CCN(C(=O)c2ccco2)C1=S displays TGI of 30.1 µM

Memo: c1csc(-c2cscc2-c2ccsc2)c1 , reported TGI: > 100 µM

Reported TGI for C=C1C(=O)C([Si](C)(C)C)=C2C=C(C)C3(CC3)C12C (stereo unspecified) was > 100 µM

Entry O=C1C/C(=C/c2ccc(/C=C3/CC(=O)N(c4cccc(Br)c4)C3=O)cc2)C(=O)N1c1cccc(Br)c1 — recorded TGI = > 100 µM

Form: compound = O=c1c2cc(S(=O)(=O)Nc3ccccc3Cl)ccc2ncn1NS(=O)(=O)c1ccc(Br)cc1 ; TGI = > 37.5 µM

Note to self: TGI recorded for CCc1c(C)[nH]c(/C=C2\N=C(c3ccc[nH]3)C=C2OC)c1C was 0.591 µM

For CSC1=N[C@H](c2ccccc2)CS1 the compound record lists TGI as > 100 µM

The recorded TGI for entry CC1C2CC(CC(=O)N2)C1(C)C (stereo unspecified) equals > 100 µM

Record Cc1ccc(NCC2CC/C(=C\c3ccc(Cl)cc3)C2=O)cc1 (stereo unspecified) . Reported TGI: 60 µM

# TGI of COc1cc2c(/C=C3/C(=O)Nc4ccc(Cl)cc43)c(Cl)n(Cc3ccccc3)c2cc1C = 6.78 µM

Data point: Cn1c(O)c(C(=O)Nc2cccs2)c(=O)[nH]c1=S ; TGI = 34.1 µM

So for CC1=CC(=O)c2c(O)cccc2C1=O , the logged TGI turned out to be 2.98 µM

Form field TGI, entry COC12C=CC(CC1)c1c(O)ccc(O)c12 (stereo unspecified) : > 100 µM

Per the records, this compound ( CC12CCC(=O)C=C1CCC1C2CCC2(C)C(C(=O)Cn3cnc4c(=S)nc[nH]c43)CCC12 (stereo unspecified) ) has TGI equal to > 100 µM

Input C=C(C)[C@@H]1CC[C@]2(C(=O)NCCCN)CC[C@]3(C)[C@H](CC[C@@H]4[C@@]5(C)CC[C@H](O)C(C)(C)[C@@H]5CC[C@]43C)[C@@H]12 . Output TGI: > 100 µM
